meta.source: patent US20250313560A1

- Tested on: human hepatocytes
- PROTOCOL_TEXT: Metabolic stability in human hepatocytes
- CONDITIONS_USED: 1 μM test compound, 50% human serum, percentage of liver blood flow
The following molecules are shown together with reported Hepatic clearance - QH[%] in human hepatocytes values.

Past entries and their recorded results:
C[C@@H](NC(=O)c1cc(N2CCC(N(C)CC3(O)CC3)CC2)c2ncnn2c1)c1cccc(C(F)F)c1F | 21%
C[C@@H](NC(=O)c1cc(N2CCC(N3CCCC(O)CC3)CC2)c2ncnn2c1)c1cccc(C(F)F)c1F (single isomer, unassigned) [Example E17b] | 30%
C[C@@H](NC(=O)c1cc(N2CCC(N3CCCC(O)CC3)CC2)c2ncnn2c1)c1cccc(C(F)F)c1F (single isomer, unassigned) [Example E17a] | 13%

For C[C@@H](NC(=O)c1cc(N2CCC(N3CCC[C@H](O)C3)CC2)c2ncnn2c1)c1cccc(C(F)(F)F)c1F , write its Hepatic clearance - QH[%] in human hepatocytes.
16%

For C[C@@H](NC(=O)c1cc([C@H]2CC[C@H](N3CC[C@H](O)C3)CC2)c2ncnn2c1)c1cccc(C(F)(F)F)c1F , write its Hepatic clearance - QH[%] in human hepatocytes.
<4%

For Cc1nnc2c(N3CCC4(CCCN4C)CC3)cc(C(=O)N[C@H](C)c3cccc(C(F)(F)F)c3F)cn12 , write its Hepatic clearance - QH[%] in human hepatocytes.
8%

###

- Test system: ERK phosphorylation in NCI-H358 SOS2 KO cells (KRAS G12C)
- PROTOCOL_TEXT: Erk phosphorylation assay
- Format: cell-based, human
- CONDITIONS_USED: NCI-H358 SOS2 KO cells, EGF stimulated; average of at least two measurements; read-out: pERK IC50
The following compounds are shown together with reported pIC50 values.
FYI, pIC50 means -log10 of a concentration in mol per litre.

Past entries and their recorded results:
C[C@@H](NC(=O)c1cc(N2CCC(N3CCCC(O)CC3)CC2)c2ncnn2c1)c1cccc(C(F)F)c1F (single isomer, unassigned) [Example E17b] | 6.70
C[C@@H](NC(=O)c1cc(N2CCC3CCNC3C2)c2ncnn2c1)c1cccc(C(F)(F)F)c1F (single isomer, unassigned) [Example cis-E52b] | 7.40
C[C@@H]1C[C@H](O)CN1C1CCN(c2cc(C(=O)N[C@H](C)c3cccc(C(F)(F)F)c3F)cn3ncnc23)CC1 [Example E24] | 6.49
C[C@@H](NC(=O)c1cc(N2CCC3CCNC3C2)c2ncnn2c1)c1cccc(C(F)(F)F)c1F (single isomer, unassigned) [Example cis-E52a] | 6.94

Attention now turns to another entry.
For C[C@@H](NC(=O)c1cc(N2CCC(N3CCCC(C)(O)C3)CC2)c2ncnn2c1)c1cccc(C(F)(F)F)c1F (single isomer, unassigned) [Example E47b] , write its pIC50.
6.70

###

- SYSTEM_NAME: SOS1 and KRAS G12C (Homo sapiens (Human), UniProt Q07889)
- Sequence (Q07889 564-1049, stated change not applied): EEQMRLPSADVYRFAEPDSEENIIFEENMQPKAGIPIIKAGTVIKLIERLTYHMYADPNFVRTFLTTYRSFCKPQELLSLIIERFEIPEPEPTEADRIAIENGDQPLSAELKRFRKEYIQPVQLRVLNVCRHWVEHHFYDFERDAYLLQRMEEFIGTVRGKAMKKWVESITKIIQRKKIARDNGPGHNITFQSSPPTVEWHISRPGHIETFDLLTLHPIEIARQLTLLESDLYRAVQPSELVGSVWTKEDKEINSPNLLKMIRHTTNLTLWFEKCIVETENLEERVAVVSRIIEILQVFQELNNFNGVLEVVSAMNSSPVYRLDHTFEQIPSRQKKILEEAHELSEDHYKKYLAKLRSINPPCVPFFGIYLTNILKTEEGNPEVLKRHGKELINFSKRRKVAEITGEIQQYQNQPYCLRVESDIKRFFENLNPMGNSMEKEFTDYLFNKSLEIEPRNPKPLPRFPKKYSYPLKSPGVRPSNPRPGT
- PROTOCOL_TEXT: KRAS::SOS1 AlphaScreen binding assay (KRAS G12C)
- CONDITIONS_USED: average of at least two measurements
API: label(entry) gives Condition met if the entry's IC50 is strictly smaller than 40 nM; on equality or larger values it gives Condition not met.

Past entries and their recorded results:
Cc1nnc2c(N3CCC4(CCCN4C)CC3)cc(C(=O)N[C@H](C)c3cccc(C(F)(F)F)c3F)cn12 | Condition met
C[C@@H](NC(=O)c1cc(N2CCC(N3C[C@H](O)C4(CC4)C3)CC2)c2ncnn2c1)c1cccc(C(F)(F)F)c1F | Condition not met
C[C@@H](NC(=O)c1cc(N2CCC3(CCCN3)CC2)c2ncnn2c1)c1cccc(C(F)(F)F)c1F | Condition not met
C[C@@H](NC(=O)c1cc(N2CCC(N3CC4CC4(CO)C3)CC2)c2ncnn2c1)c1cccc(C(F)F)c1F (single isomer, unassigned) [Example cis-E21b] | Condition not met
C[C@@H](NC(=O)c1cc(N2CCC(NC3COCC3O)CC2)c2ncnn2c1)c1cccc(C(F)(F)F)c1F (single isomer, unassigned) [Example trans-E42b] | Condition met
C[C@@H](NC(=O)c1cc(N2CCC(N3CCO[C@@H](CO)C3)CC2)c2ncnn2c1)c1cccc(C(F)F)c1F | Condition not met
C[C@@H](NC(=O)c1cc([C@H]2CC[C@H](N3CCC(F)C(O)C3)CC2)c2ncnn2c1)c1cccc(C(F)F)c1F (single isomer, unassigned) [Example trans-E61b] | Condition met
C[C@@H](NC(=O)c1cc(N2CCC(NCC(C)(C)O)CC2)c2ncnn2c1)c1cccc(C(F)(F)F)c1F | Condition not met

In plain terms, does C[C@@H](NC(=O)c1cc([C@H]2CC[C@H](N3C[C@H](F)C[C@@H]3CO)CC2)c2ncnn2c1)c1cccc(C(F)F)c1F come in under 40 nM for IC50?
Condition met

In plain terms, does C[C@H](O)CNC1CCN(c2cc(C(=O)N[C@H](C)c3cccc(C(F)(F)F)c3F)cn3ncnc23)CC1 come in under 40 nM for IC50?
Condition not met

In plain terms, does C[C@@H](NC(=O)c1cc(N2CCC(N3CC[C@@H](CO)C3)CC2)c2ncnn2c1)c1cccc(C(F)(F)F)c1F come in under 40 nM for IC50?
Condition not met

In plain terms, does C[C@@H](NC(=O)c1cc(N2CCC(NC3COCC3O)CC2)c2ncnn2c1)c1cccc(C(F)(F)F)c1F (single isomer, unassigned) [Example trans-E42a] come in under 40 nM for IC50?
Condition met

In plain terms, does Cc1nc2c([C@H]3CC[C@H](N4CCCC4)CC3)cc(C(=O)N[C@H](C)c3cccc(C(F)F)c3F)cn2n1 come in under 40 nM for IC50?
Condition met

In plain terms, does C[C@@H](NC(=O)c1cc(N2CCC(N3CCCC(O)CC3)CC2)c2ncnn2c1)c1cccc(C(F)F)c1F (single isomer, unassigned) [Example E17b] come in under 40 nM for IC50?
Condition met
